System: T-47D breast
testSummary: NCI-60 one-dose screen, 48 h (100 = growth as untreated, 0 = no growth, -100 = all killed)
particulars: 10 µM unless noted
Compounds without any hit were thinned out: in the full panel of roughly 83,000, 20% have a hit. Active and inactive are the calls of the source. The calls were made as follows: active = growth percent below 10; inactive = the rest.
The following compounds are listed with their measured growth values.

compound | growth
COc1cc(OC)cc(C2C3=C(COC3=O)Nc3cc(OC)ccc32)c1 (stereo not given) | 68.8% (inactive)
Cc1ccc(C2CC(c3cccc(Nc4ccncc4)c3)=NN2c2cc(Cl)cc(Cl)c2)cc1 (stereo not given) | 80.3% (inactive)
Cn1c(COC(=O)N2CCCCC2)nc2c(N3CCOCC3)nc(-c3ccccc3)nc21 | -38.4% (active)
COc1ccc(C(O)c2cc3c(N)c(C(=O)Nc4ccc(Cl)cc4)sc3nc2C)cc1 (stereo not given) | 37.4% (inactive)
CCC(=O)c1ccc(O)c(OC)c1 | 109% (inactive)

###

Test system: NCI/ADR-RES ovarian
testSummary: NCI-60 one-dose screen, 48 h
particulars: 10 µM unless noted
The panel holds about 83,000 compounds, 20% with a hit somewhere; the sample as a whole holds those more often. Active and inactive are the calls of the source. How the source made its calls: active means growth percent below 10; inactive means the rest.
Classes used: active, inactive

compound | subjectOfTest | className
COc1cc(C(=O)c2cnc(-c3ccc4cc[nH]c4c3)[nH]2)cc(OC)c1OC | NCI/ADR-RES ovarian | active
COc1ccc(C(=O)c2cc(C)c(OC)c(C)c2)c(OC)c1N(C(=O)C(Cl)Cl)C(=O)C(Cl)Cl | NCI/ADR-RES ovarian | active
Cc1nccc2c3ccc(OCc4cn(-c5ccc(Cl)cc5)nn4)cc3n(CCCc3ccccc3)c12 | NCI/ADR-RES ovarian | active
COc1ccc(Nn2c(SCC(=O)Nc3nc(-c4ccc(Cl)cc4)cs3)nc(C)c2C)cc1 | NCI/ADR-RES ovarian | inactive
COc1cc(/C=C/C(=O)c2ccc(Nc3ncnc4ccccc34)cc2)cc(OC)c1 | NCI/ADR-RES ovarian | inactive
NC(=O)CN1CCN(c2ccccc2Cl)CC1 | NCI/ADR-RES ovarian | inactive
CN1CCCC1=Nc1ccccc1 | NCI/ADR-RES ovarian | inactive
CC[C@H](CC[C@@H](C)[C@H]1CC[C@H]2[C@@H]3CC=C4C[C@@H](OCCc5nn[nH]n5)CC[C@]4(C)[C@H]3CC[C@]12C)C(C)C | NCI/ADR-RES ovarian | inactive
COc1ccccc1OCC(=O)N1CCCCCC1 | NCI/ADR-RES ovarian | inactive
COc1ccc2c(/C=C3/C(=O)NC(=S)NC3C)cc(=O)oc2c1 (configuration not stated) | NCI/ADR-RES ovarian | inactive
COc1ccc(C(=O)c2cc3c(N)c(C(=O)Nc4ccc(Cl)cc4)sc3nc2C)cc1 | NCI/ADR-RES ovarian | inactive
Clc1ccc(N2N=C(c3cccc(Nc4ccncc4)c3)CC2c2ccc(Br)cc2)cc1 (configuration not stated) | NCI/ADR-RES ovarian | inactive
Cc1ccc2[nH]c(=O)cc(-n3nncc3COc3ccc(C=O)cc3)c2c1 | NCI/ADR-RES ovarian | inactive
COc1nc(N)nc(-n2c(-c3ccc(C)cc3)nc3ccccc32)c1NCc1ccc(C)cc1 | NCI/ADR-RES ovarian | inactive
CCN1C(=O)/C(=c2\sc3n(c2=O)NC2C(N=3)N(CC)C(=O)N2CC)c2ccccc21 (configuration not stated) | NCI/ADR-RES ovarian | inactive
CS(=O)(=O)OCCN(CCOS(C)(=O)=O)c1ccc(/C=N/Nc2ccc([N+](=O)[O-])cc2[N+](=O)[O-])cc1 | NCI/ADR-RES ovarian | inactive
CS(=O)(=O)Nc1cc(-c2ccc3ncnc(Nc4ccc5[nH]ncc5c4)c3c2)cnc1Cl | NCI/ADR-RES ovarian | inactive
CCCCCCCCCCCC(=O)C(CCCCCCCCCC)C(=O)Nc1ccccc1 (configuration not stated) | NCI/ADR-RES ovarian | inactive
CCn1cc(C2NC(=O)c3ccccc3N2)c2cccc(C)c21 (configuration not stated) | NCI/ADR-RES ovarian | active
COc1cc(OC)cc(C2C3=C(COC3=O)Nc3cc(OC)ccc32)c1 (configuration not stated) | NCI/ADR-RES ovarian | active
CCOc1cc(CNc2ccc(N3CCOCC3)c(C(=O)O)c2)ccc1OC | NCI/ADR-RES ovarian | inactive
CCCCCCc1nc2nc(Cl)c(Cl)nc2[nH]1 | NCI/ADR-RES ovarian | inactive
Cc1cc(Nc2cccc(C(F)(F)F)c2)n2c(nc3ccccc32)c1C#N | NCI/ADR-RES ovarian | inactive
CC(C)(C#N)N1CCN(c2ccccc2Cl)CC1 | NCI/ADR-RES ovarian | inactive
C=Cc1cc[n+](CCCCCCCCCCCC)cc1 | NCI/ADR-RES ovarian | inactive
COc1ccc(CNC(=O)COc2ccc(/C=N/Nc3nc4ccccc4s3)cc2)cc1 | NCI/ADR-RES ovarian | inactive
Fc1ccc(-n2cc(COc3ncnc4sc5c(c34)CCCC5)nn2)cc1Cl | NCI/ADR-RES ovarian | inactive
CC(=O)c1cccc(NS(=O)(=O)c2cccc(C(=O)Nc3ccc(Br)cc3)c2)c1 | NCI/ADR-RES ovarian | inactive
O=C(NNc1nc(Cl)nc(N2CCN(C(c3ccccc3)c3ccccc3)CC2)n1)c1ccccc1 | NCI/ADR-RES ovarian | inactive
COc1cc(Nc2cc(O)c3c(=O)cc(-c4ccccc4)oc3c2)cc(OC)c1 | NCI/ADR-RES ovarian | inactive
Nc1nnc2cc(Cl)ccc2n1 | NCI/ADR-RES ovarian | inactive
CCCCCCCCOC(=O)c1ccc(O)c(OC)c1 | NCI/ADR-RES ovarian | inactive
CN(C)c1ccc(-c2c(C#N)c(N)n3nc(N)c(C#N)c3c2C#N)cc1 | NCI/ADR-RES ovarian | inactive
O=S(=O)(NCCNc1nccc(-c2c(-c3ccc(F)c(O)c3)nc3occn23)n1)c1ccccc1 | NCI/ADR-RES ovarian | inactive
CCCCCN1C=C/C(=C\C(=O)N(C)c2cccc3ccccc23)c2ccccc21 | NCI/ADR-RES ovarian | inactive
COc1ccc(C(=O)/C=C/c2c(OC)cc(OC)cc2OC)c(OC)c1 | NCI/ADR-RES ovarian | active
CC1(C)CN(c2cnc(C(=O)Nc3cc(F)cc4cccnc34)cn2)CCN1 | NCI/ADR-RES ovarian | inactive
[O-][n+]1ccccc1CCN(O)CCc1cccc[n+]1[O-] | NCI/ADR-RES ovarian | inactive
O=C(Nc1ccc2ncnc(Nc3ccc(Oc4cccc(F)c4)c(Cl)c3)c2c1)c1ccc(CNCCO)cc1 | NCI/ADR-RES ovarian | inactive
COc1ccc(C2=NN(C(C)=O)C(c3cn(Cc4ccc(Cl)cc4)c4ccccc34)C2)cc1 (configuration not stated) | NCI/ADR-RES ovarian | inactive
Nc1cc(N)c2cccnc2c1O | NCI/ADR-RES ovarian | inactive
CC(=O)N1N=C(c2cccc(Nc3ccncc3)c2)CC1c1ccccc1 (configuration not stated) | NCI/ADR-RES ovarian | inactive

###

Test system: SK-MEL-5 melanoma
testSummary: NCI-60 one-dose screen, 48 h (100 = growth as untreated, 0 = no growth, -100 = all killed)
particulars: 10 µM unless noted
The panel holds about 83,000 compounds, 20% with a hit somewhere; the sample as a whole holds those more often.
Values of growth strictly less than 80% map to Criterion met, and values of at least 80% map to Criterion not met.

compound | className
CCOc1ccc(/C=N/Nc2cc(C)nc3ccc(Cl)cc23)cc1 | Criterion met
CCNC(=O)c1[nH]cc(-c2ccc(OC)cc2)c1-c1cc(OC)c(OC)c(OC)c1 | Criterion met
COc1cc(C2NC(c3cc(OC)c(OC)c(OC)c3)C(C#N)(C#N)C2(C#N)C#N)cc(OC)c1OC (stereo unspecified) | Criterion not met
Fc1ccc(C2CC(c3cccc(Nc4ccncc4)c3)=NN2c2ccccc2)cc1 (stereo unspecified) | Criterion met
COc1cc2nnn3c4ncccc4c(N=O)c3c2cc1OC | Criterion not met
O=C(N/N=C/c1ccc(F)cc1)c1ccccc1Nc1cccc(C(F)(F)F)c1 | Criterion not met
O=C(/C=C\c1ccc(OCCCCCC[P+](c2ccccc2)(c2ccccc2)c2ccccc2)cc1)c1ccc2c(c1)OCCO2 | Criterion met
C=C1C(=O)O[C@H]2[C@H]1CC/C(CNC(=O)/C=C/c1ccccc1F)=C\CC[C@@]1(C)O[C@@H]21 | Criterion met
COc1cc(NCC(O)CN(CC(C)C)C2CCCC2)c2ncccc2c1 (stereo unspecified) | Criterion not met
CCCCCCCCCCCCCCCC(=O)OC[C@@]1(O)C[C@@]23CC[C@@H]4C(C)(C)CCC[C@@]4(C)[C@@H]2CC[C@H]1C3 | Criterion not met
C#CC(=O)Nc1cccc(Nc2nc3c(c(NCc4ccccc4)n2)CCCC3)c1 | Criterion met
Fc1ccc(C2CC(c3cccc(Nc4ccncc4)c3)=NN2c2cc(Cl)cc(Cl)c2)cc1 (stereo unspecified) | Criterion not met
O=C(O)c1cn(C2CC2)c2cc(N3CCN(C(=O)C[n+]4cccc5ccccc54)CC3)c(F)cc2c1=O | Criterion not met
CCN(CC)CCCC(Nc1c2ccc(Cl)cc2nc2ccc(OC)cc12)c1ccc(Cl)cc1 (stereo unspecified) | Criterion met
COc1cc2nc(-c3ccc(C#N)cc3)[nH]c(=O)c2cc1OC | Criterion not met
C[C@@H]1CN(Cc2ccc(/C=C/c3n[nH]c4ccc5nc(-c6cn[nH]c6C(F)(F)F)c6c(c5c34)CCCC6)cc2)C[C@H](C)O1 | Criterion met
COc1ccc(Nc2nc(N)nc3c2CCc2occc2-3)cc1 | Criterion not met
COc1ccc(C(O)c2cc3c(N)c(C(=O)Nc4ccc(Cl)cc4)sc3nc2C)cc1 (stereo unspecified) | Criterion met
COc1cc(C2CC(c3cccc(Nc4ccncc4)c3)=NN2c2ccccc2)cc(OC)c1OC (stereo unspecified) | Criterion met
C=C(C)[C@@H]1CC[C@]2(C(=O)O)CC[C@]3(C)[C@H](CC[C@@H]4[C@@]5(C)C[C@@H](CC#Cc6ccc(Br)cc6)C(=O)C(C)(C)[C@@H]5CC[C@]43C)[C@@H]12 | Criterion met
CC1=CC2(C)/C=C(C)/C=C\CC(O)/C=C3/C=CC(=C4C(=O)OC2(CC1C)C4=O)OC3 (stereo unspecified) | Criterion met
CCCC1C(C(=O)OCC)=C(N)Oc2cc(O)ccc21 (stereo unspecified) | Criterion not met
Cc1cccc(Oc2ccc(Nc3ncnc4ccc(NC(=O)CNCCO)cc34)cc2Cl)c1 | Criterion met
COc1ccc(-c2c[nH]c(C(=O)O)c2-c2cc(OC)c3c(c2OC)OCO3)cc1 | Criterion not met
CCCCCCC/C=C/[C@H]1O[C@]2(O)C(=O)C=C3C[C@@H](O[C@@H]4O[C@H](CO)[C@@H](O)C(O)[C@@H]4O)C[C@@H]3[C@H]2C=C1C (stereo partly specified) | Criterion met
O=C1/C(=C\c2cn(Cc3ccccc3)c3ccc(Br)cc23)c2ccccc2N1c1c(Cl)cccc1Cl | Criterion not met
COc1ccc(C(O)c2cc3c(N)c(C(=O)Nc4cccc(Br)c4C)sc3nc2C)cc1 (stereo unspecified) | Criterion met
COc1cc(COC(=O)CCCCC[P+](c2ccccc2)(c2ccccc2)c2ccccc2)c(OC)c2c1OCO2 | Criterion met
C=CCn1c(SCC(=O)Nc2ccc(C(=O)/C=C/c3cc(OC)c(OC)c(OC)c3)cc2)nnc1-c1cc(OC)c(OC)c(OC)c1 | Criterion met
O=C(Nc1nc2ccc(C(=O)N3CCN(c4ccc(Cl)c(Cl)c4)CC3)cc2s1)c1ccc(NCCc2ccccc2)c([N+](=O)[O-])c1 | Criterion not met
COc1ccc(-c2nc(SCCC(C)C)nc(N/N=C(/C)c3ccc(C)cc3)c2C#N)cc1 | Criterion not met
COc1cccc(NC(=O)c2cccc(-c3cc(=O)c4c(OC)c(OC)c(OC)cc4o3)c2)c1 | Criterion met
COc1ccc2c(c1)c(CC(=O)NCCOCCOCC(=O)Nc1ccc(OC)c(C(N)=O)c1O)c(C)n2C(=O)c1ccc(Cl)cc1 | Criterion not met
